- Test system: rat granzyme A
- experimental-details: Inactivation rate of rat granzyme A, incubation method
- Type: biochemical
- cond: Table I; 0.1M Hepes, 0.01M CaCl2 pH 7.5, 25° C., 7.6% DMSO, substrate Z--Arg--SBzl
Cut-off 500 M⁻¹ s⁻¹ on kobsd /[I] rat granzyme A, inclusive. At or above means 1; below means -1.

{"molecule": "Cl.N=C(N)c1ccc(C(NC(=O)c2ccccc2Oc2ccccc2)P(=O)(Oc2ccccc2)Oc2ccccc2)cc1 (stereo not shown) [2-Phenoxybenzoyl-(4-AmPhGly)^P (OPh)2]", "label": -1}
{"molecule": "Cl.N=C(N)c1ccc(C(NC(=O)c2cccc(Oc3ccccc3)c2)P(=O)(Oc2ccccc2)Oc2ccccc2)cc1 (stereo not shown) [3-Phenoxybenzoyl-(4-AmPhGly)^P (OPh)2]", "label": -1}
{"molecule": "Cl.N=C(N)c1ccc(C(NC(=O)C=Cc2cccs2)P(=O)(Oc2ccccc2)Oc2ccccc2)cc1 (stereo not shown)", "label": -1}
{"molecule": "Cl.N=C(N)c1ccc(C(NC(=O)/C=C/c2cccnc2)P(=O)(Oc2ccccc2)Oc2ccccc2)cc1 (stereo not shown)", "label": -1}
{"molecule": "CC(NC(=O)OCc1ccccc1)C(=O)NC(C)C(=O)NC(C)C(=O)NC(c1ccc(C(=N)N)cc1)P(=O)(Oc1ccccc1)Oc1ccccc1 (mixture of isomers) [Cbz--Ala--Ala--Ala-(4-AmPhGly)^P (OPh)2]", "label": 1}
{"molecule": "C[C@H](NC(=O)OCc1ccccc1)C(=O)N[C@@H](C)C(=O)NC(c1ccc(C(=N)N)cc1)P(=O)(Oc1ccccc1)Oc1ccccc1 (stereo partly shown) [Cbz--Ala--Ala-(4-AmPhGly)^P (OPh)2]", "label": -1}
{"molecule": "N=C(N)c1ccc(C(NC(=O)Oc2cccc3ccccc23)P(=O)(Oc2ccccc2)Oc2ccccc2)cc1 (stereo not shown)", "label": -1}
{"molecule": "Cl.N=C(N)c1ccc(C(NC(=O)C=Cc2ccco2)P(=O)(Oc2ccccc2)Oc2ccccc2)cc1 (stereo not shown) [(2-Furyl)acryloyl-(4-AmPhGly)^P (OPh)2]", "label": 1}
{"molecule": "Cl.N=C(N)c1ccc(C(NC(=O)/C=C/c2ccccc2)P(=O)(Oc2ccccc2)Oc2ccccc2)cc1 (stereo not drawn) [trans-Cinnamoyl-(4-AmPhGly)^P (OPh)2]", "label": -1}
{"molecule": "CC(NC(=O)OCc1ccccc1)C(=O)NC(c1ccc(C(=N)N)cc1)P(=O)(Oc1ccccc1)Oc1ccccc1 (mixture of isomers) [Cbz--Ala-(4-AmPhGly)^P (OPh)2]", "label": 1}
{"molecule": "N=C(N)c1ccc(C(NC(=O)C(Cc2ccccc2)NC(=O)OCc2ccccc2)P(=O)(Oc2ccccc2)Oc2ccccc2)cc1 (mixture of isomers) [Cbz--Phe-(4-AmPhGly)^P (OPh)2]", "label": -1}
{"molecule": "N=C(N)c1ccc(C(NS(=O)(=O)c2cccc3ccccc23)P(=O)(Oc2ccccc2)Oc2ccccc2)cc1 (racemic) [1-NpSO2-(4-AmPhGly)^P (OPh)2]", "label": -1}
{"molecule": "N=C(N)c1ccc(C(NC(=O)C(CCCCN)NC(=O)OCc2ccccc2)P(=O)(Oc2ccccc2)Oc2ccccc2)cc1 (mixture of isomers) [Cbz--Lys-(4-AmPhGly)^P (OPh)2]", "label": -1}

----------
- assay-system: UniProt P00760
- Sequence (P00760 24-246): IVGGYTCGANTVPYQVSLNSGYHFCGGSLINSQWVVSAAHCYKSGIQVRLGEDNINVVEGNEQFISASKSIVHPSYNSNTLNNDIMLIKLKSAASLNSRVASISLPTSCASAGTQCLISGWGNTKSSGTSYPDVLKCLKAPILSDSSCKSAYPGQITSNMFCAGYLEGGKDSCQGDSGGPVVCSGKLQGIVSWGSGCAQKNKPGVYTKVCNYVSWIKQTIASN
- experimental-details: Inactivation rate of bovine trypsin, incubation method
- Format: biochemical
- cond: Table II; 0.13 μM trypsin, 0.25-42 μM inhibitor, 80 mM Hepes pH 7.5, 1 mM CaCl2, 8% DMSO, 25° C.; NI = no inhibition
Classes by kobs /[I] bovine trypsin: lo (below 30 M⁻¹ s⁻¹), mid (30 M⁻¹ s⁻¹ to below 100 M⁻¹ s⁻¹), hi (100 M⁻¹ s⁻¹ or more)

{"compound": "N=C(N)c1ccc(C(NC(=O)CNC(=O)OCc2ccccc2)P(=O)(Oc2ccccc2)Oc2ccccc2)cc1 (stereo not shown)", "label": "hi"}
{"compound": "Cc1ccc(S(=O)(=O)NC(c2ccc(C(=N)N)cc2)P(=O)(Oc2ccccc2)Oc2ccccc2)cc1 (racemic)", "label": "mid"}
{"compound": "CC(C)(C)OC(=O)NC(CO)C(=O)NC(c1ccc(C(=N)N)cc1)P(=O)(Oc1ccccc1)Oc1ccccc1 (mixture of isomers)", "label": "lo"}
{"compound": "COP(=O)(Oc1ccccc1)C(NC(=O)OCc1ccccc1)c1ccc(C(=N)N)cc1.Cl (stereo not shown)", "label": "mid"}
{"compound": "Cl.N=C(N)c1ccc(C(NC(=O)/C=C/c2ccccc2)P(=O)(Oc2ccccc2)Oc2ccccc2)cc1 (stereo not drawn) [trans-Cinnamoyl-(4-AmPhGly)^P (OPh)2]", "label": "hi"}
{"compound": "CC(C)CC(NC(=O)C(Cc1ccccc1)NC(=O)OC(C)(C)C)C(=O)NC(c1ccc(C(=N)N)cc1)P(=O)(Oc1ccccc1)Oc1ccccc1 (mixture of isomers)", "label": "lo"}
{"compound": "CC(C)C(NC(=O)OCc1ccccc1)C(=O)NC(c1ccc(C(=N)N)cc1)P(=O)(Oc1ccccc1)Oc1ccccc1 (mixture of isomers)", "label": "lo"}
{"compound": "C[C@H](NC(=O)CCC(=O)O)C(=O)N[C@@H](C)C(=O)NC(c1ccc(C(=N)N)cc1)P(=O)(Oc1ccccc1)Oc1ccccc1 (stereo partly shown)", "label": "hi"}
{"compound": "Cl.N=C(N)c1ccc(C(NC(=O)C=Cc2cccs2)P(=O)(Oc2ccccc2)Oc2ccccc2)cc1 (stereo not shown)", "label": "hi"}
{"compound": "N=C(N)c1ccc(C(NC(=O)C(Cc2c[nH]c3ccccc23)NC(=O)OCc2ccccc2)P(=O)(Oc2ccccc2)Oc2ccccc2)cc1 (mixture of isomers)", "label": "lo"}
{"compound": "N=C(N)c1ccc(C(NS(=O)(=O)c2cccc3ccccc23)P(=O)(Oc2ccccc2)Oc2ccccc2)cc1 (racemic)", "label": "hi"}
{"compound": "CC(C)CC(NC(=O)C(CC(N)=O)NC(=O)OC(C)(C)C)C(=O)NC(C(=O)NC(c1ccc(C(=N)N)cc1)P(=O)(Oc1ccccc1)Oc1ccccc1)C(C)O (mixture of isomers)", "label": "lo"}
{"compound": "CC(C)CC(NC(=O)OC(C)(C)C)C(=O)NC(C(=O)NC(c1ccc(C(=N)N)cc1)P(=O)(Oc1ccccc1)Oc1ccccc1)C(C)O (mixture of isomers)", "label": "mid"}
{"compound": "Cl.N=C(N)c1ccc(C(NC(=O)c2ccccc2Oc2ccccc2)P(=O)(Oc2ccccc2)Oc2ccccc2)cc1 (stereo not shown)", "label": "hi"}
